In this section, each of the compounds is paired with its reported GI50.
System: LOX IMVI
procedure.summary: NCI tumour cell line growth inhibition, 48 h
Calls of active or inactive are those of the source. Cut-off read from the data, not from the text of the source: active = GI50 up to about 1.1 µM and inactive = higher.

# annotated cases, reported GI50 shown
- compound: "CCCCCCCCCCOC1C(C(C)OCCCN(C)C)OC2OC3(CCCCC3)OC21 (centres undefined)"
  data.value: "1.93 µM (inactive)"
- compound: "C#CCOCC12C=CC(O1)C1C(=O)N(C)C(=O)C12 (centres undefined)"
  data.value: "> 100 µM (inactive)"
- compound: "O=C1C(c2ccccc2)=[N+]([O-])c2cc([N+](=O)[O-])c(/C(Cl)=C/c3ccccc3)cc21"
  data.value: "13.7 µM (inactive)"
- compound: "COc1ccc(Nc2nc3ccc(C(F)(F)F)cc3nc2C(=O)O)cc1OC"
  data.value: "28.8 µM (inactive)"
- compound: "CSCC[C@@H](NC(=O)[C@H](CC(C)C)NC(=O)C(Cc1cnc[nH]1)NC(=O)CNC(=O)[C@@H](NC(=O)[C@H](C)NC(=O)[C@H](Cc1c[nH]c2ccccc12)NC(=O)[C@H](CCC(N)=O)NC(=O)[C@@H](N)CC(N)=O)C(C)C)C(N)=O (some centres undefined)"
  data.value: "99.8 µM (inactive)"
- compound: "O=C(CNc1cccc(Cl)c1)Nn1c(-c2ccccc2)nc2ccccc2c1=O"
  data.value: "1.21 µM (inactive)"

Value of measured GI50 for the entry Cc1ccc(Nc2nc(NNC(=O)Cc3ccccc3)nc(NNC(=O)c3ccncc3)n2)cc1 : > 10 µM (inactive)

Value of measured GI50 for the entry CS(=O)(=O)CCC(N)P(=O)(O)O (centres undefined) : > 100 µM (inactive)

Value of measured GI50 for the entry CN(C)CC1CCCC/C1=N/OC(=O)c1ccc(Cl)cc1 (centres undefined) : > 100 µM (inactive)
